molecular target: Renin (Homo sapiens, UniProt P00797); test: Tested for inhibition of human plasma renin; type: cell-free
Sequence (P00797 whole entry): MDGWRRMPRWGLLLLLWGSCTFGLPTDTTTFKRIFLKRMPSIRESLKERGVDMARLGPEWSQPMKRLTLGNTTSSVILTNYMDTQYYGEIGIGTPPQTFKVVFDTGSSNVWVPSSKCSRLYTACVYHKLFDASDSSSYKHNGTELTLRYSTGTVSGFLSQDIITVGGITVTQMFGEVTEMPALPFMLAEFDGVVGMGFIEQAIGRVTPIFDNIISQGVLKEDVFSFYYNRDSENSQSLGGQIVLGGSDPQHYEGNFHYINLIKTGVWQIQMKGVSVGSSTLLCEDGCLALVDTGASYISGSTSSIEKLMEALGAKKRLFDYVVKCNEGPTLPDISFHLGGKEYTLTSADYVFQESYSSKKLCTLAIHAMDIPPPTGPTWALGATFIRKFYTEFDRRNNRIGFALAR
pIC50: −log10 of the molar value.
Would you mind labelling by pIC50? At or over 6 is YES, under is NO.

Hi team, for CC(C)OC(=O)[C@H](O)[C@H](CC1CCCCC1)NC(=O)[C@@H](Cc1c[nH]cn1)NC(=O)[C@@H](CC(=O)N1CCOCC1)Cc1cccc2ccccc12 , is the recorded pIC50 at or above 6?
NO

Hi team, for CC(C)OC(=O)[C@H](O)[C@H](CC1CCCCC1)NC(=O)[C@H](Cc1c[nH]cn1)NC(=O)[C@@H](CC(=O)N1CCOCC1)Cc1cccc2ccccc12 , is the recorded pIC50 at or above 6?
YES

Hi team, for CC(C)OC(=O)[C@H](O)[C@@H](CC1CCCCC1)NC(=O)[C@H](Cc1c[nH]cn1)NC(=O)[C@@H](CC(=O)N1CCOCC1)Cc1cccc2ccccc12 , is the recorded pIC50 at or above 6?
NO

Hi team, for CC(C)OC(=O)[C@@H](O)[C@@H](CC1CCCCC1)NC(=O)[C@H](Cc1c[nH]cn1)NC(=O)[C@@H](CC(=O)N1CCOCC1)Cc1cccc2ccccc12 , is the recorded pIC50 at or above 6?
NO

Hi team, for CC(C)OC(=O)C(O)[C@@H](Cc1ccccc1)NC(=O)[C@H](Cc1cnc[nH]1)NC(=O)[C@@H](CC(=O)N1CCOCC1)Cc1cccc2ccccc12 (stereo partly specified) , is the recorded pIC50 at or above 6?
YES
